Collected CC50 values appear next to each entry.
test system: Panel NCI-60 (60 carcinoma cell lines); assay: Mean in vitro LC50 value against 60 human cancer cell line was determined; type: functional; conditions: read-out: LC50 (the source's name)
Enter your answer as a number in µM; do not include the unit.

Guide cases for CC50, answers given:
1. O=C1C=CC(O)(c2cc3ccccc3[nH]2)C=C1: 24
2. O=C1C=CC(O)(c2nc3ccccc3s2)C=C1: 3.39
3. O=C1C=CC(O)(c2nc3ccccc3[nH]2)C=C1: 13.2
4. O=C1C=CC(O)(c2cc3ccccc3n2S(=O)(=O)c2ccccc2)C=C1: 2.95

Please give the documented CC50 of Cc1ccc(S(=O)(=O)n2c(C3(O)C=CC(=O)C=C3)cc3ccccc32)cc1
7.24
